# assayRemarks: Cytotoxicity against human Raji cells assessed as cell viability at 1000 molar ratio after 48 hrs by trypan blue staining method
# Type: cell-based
# testConditions: read-out: Activity
assayEndpoint: viability at 48 h, 1000 molar ratio
Numeric answer plus unit only.

In: Supply reported viability at 48 h, 1000 molar ratio belonging to this molecule: C=C(C)[C@@H]1CC[C@]2(C(=O)O)CC[C@]3(C)[C@H](CC[C@@H]4[C@@]5(C)[C@@H](C(=O)O)[C@H](O)C(C)(C)[C@@H]5CC[C@]43C)[C@@H]12 [CEANOTHIC ACID]
Out: 60%

In: Supply reported viability at 48 h, 1000 molar ratio belonging to this molecule: `C=C(C)[C@@H]1CC[C@]2(C(=O)O)CC[C@]3(C)[C@H](CC[C@@H]4[C@@]5(C)[C@@H](C(=O)O)[C@H](OC(=O)CC(C)(C)C(=O)O)C(C)(C)[C@@H]5CC[C@]43C)[C@@H]12`
Out: 60%

In: Supply reported viability at 48 h, 1000 molar ratio belonging to this molecule: `C=C(C)[C@@H]1CC[C@]2(C(=O)O)CC[C@]3(C)[C@H](CC[C@@H]4[C@@]5(C)CC[C@H](OC(=O)C[C@H](C)CO)C(C)(C)[C@@H]5CC[C@]43C)[C@@H]12`
Out: 70%
